# System: HepG2
# EXPERIMENT DESCRIPTION: Growth inhibition of human HepG2 cells by MTT assay
# Format: functional
EXPERIMENTAL ENDPOINT: GI50 (µM)

CPD SMILES	ASSAY SYSTEM	UNIT LABEL	RESULT NUMBER
COc1cc2oc(-c3cccc(NC(=O)c4ccccc4Br)c3)cc(=O)c2c(OC)c1OC	HepG2	µM	23.1
COc1cc2oc(-c3cccc(NC(=O)c4cccc(Br)c4)c3)cc(=O)c2c(OC)c1OC	HepG2	µM	10.9
COc1cc2oc(-c3cccc(NC(=O)c4ccc(F)cc4)c3)cc(=O)c2c(OC)c1OC	HepG2	µM	47.2
COc1cc2oc(-c3cccc(NC(=O)c4ccc([N+](=O)[O-])cc4)c3)cc(=O)c2c(OC)c1OC	HepG2	µM	18.8
COc1cc2oc(-c3cccc(NC(=O)c4cccc(Br)c4)c3)cc(=O)c2c(O)c1OC	HepG2	µM	44.8
COc1cc2oc(-c3ccccc3)cc(=O)c2c(OC)c1OC	HepG2	µM	54

(A) COc1ccc(C(=O)Nc2cccc(-c3cc(=O)c4c(OC)c(OC)c(OC)cc4o3)c2)cc1
(B) COc1cc2oc(-c3cccc(NC(=O)c4ccc(C(F)(F)F)cc4)c3)cc(=O)c2c(OC)c1OC
Q. Of A and B , whose reported GI50 is the larger number? To answer, give the label that identifies your chosen option.
A. B

* * *

# Tested on: MCF7
# EXPERIMENT DESCRIPTION: Growth inhibition of human MCF7 cells at 10 uM by MTT assay relative to control
# Assay type: functional
# CONDITION SUMMARY: read-out: GI
Reported inhibition of growth at 10 µM values for a set of compounds

Solved cases (10 shown):
COMPOUND	RESULT
COc1cc2oc(-c3ccccc3)cc(=O)c2c(OC)c1OC [BAICALEIN TRIMETHYL ETHER]	> 50%
COc1cc2oc(-c3cccc(NC(=O)c4ccccc4Br)c3)cc(=O)c2c(OC)c1OC	> 50%
COc1cc2oc(-c3ccc(NC(=O)c4cccc(C#N)c4)cc3)cc(=O)c2c(O)c1OC	< 50%
COc1cc2oc(-c3cccc(NC(=O)c4ccc(F)cc4)c3)cc(=O)c2c(OC)c1OC	> 50%
COc1cc2oc(-c3cccc(NC(=O)c4cccc(C#N)c4)c3)cc(=O)c2c(OC)c1OC	> 50%
COc1cc2oc(-c3cccc(NC(=O)c4ccc(C(F)(F)F)cc4)c3)cc(=O)c2c(OC)c1OC	> 50%
COc1cc2oc(-c3ccc(NC(=O)c4ccc(Br)cc4)cc3)cc(=O)c2c(O)c1OC	< 50%
COc1cc2oc(-c3cccc(NC(=O)c4ccc5c(c4)OCO5)c3)cc(=O)c2c(O)c1OC	> 50%
COc1cccc(C(=O)Nc2cccc(-c3cc(=O)c4c(O)c(OC)c(OC)cc4o3)c2)c1	> 50%
COc1cc2oc(-c3ccc(NC(=O)c4cccc(Br)c4)cc3)cc(=O)c2c(O)c1OC	< 50%

Q. Bench note: what inhibition of growth at 10 µM did "COC(=O)c1ccc(C(=O)Nc2ccc(-c3cc(=O)c4c(O)c(OC)c(OC)cc4o3)cc2)cc1" show?
A. < 50%

Q. Could you do the same for "COc1ccc(C(=O)Nc2cccc(-c3cc(=O)c4c(O)c(OC)c(OC)cc4o3)c2)cc1" , please?
A. > 50%

Q. Moving on to the next compound: "COc1cc2oc(-c3ccc(NC(=O)c4ccc(F)cc4)cc3)cc(=O)c2c(O)c1OC"
A. < 50%

Q. Query "COc1ccccc1C(=O)Nc1cccc(-c2cc(=O)c3c(O)c(OC)c(OC)cc3o2)c1" next
A. > 50%

Q. // same read-out, input: "COc1cc2oc(-c3ccc(NC(=O)c4ccc(C#N)cc4)cc3)cc(=O)c2c(O)c1OC"
A. < 50%

Q. Ok, now "COC(=O)c1ccc(C(=O)Nc2cccc(-c3cc(=O)c4c(OC)c(OC)c(OC)cc4o3)c2)cc1"
A. > 50%

Q. Let us now turn to "COc1cc2oc(-c3ccc(NC(=O)c4ccc(C)cc4)cc3)cc(=O)c2c(O)c1OC"
A. < 50%

Q. Next up: "COc1ccccc1C(=O)Nc1ccc(-c2cc(=O)c3c(O)c(OC)c(OC)cc3o2)cc1"
A. < 50%

Q. Please give the result for "COc1cc2oc(-c3ccc(NC(=O)c4ccc([N+](=O)[O-])cc4)cc3)cc(=O)c2c(O)c1OC" too.
A. < 50%

Provenance of the data: ChEMBL document CHEMBL4425196
